Source listed as ChEMBL document CHEMBL1141483.

Biological target: Prostaglandin G/H synthase 1 (Ovis aries, UniProt P05979)
Sequence (P05979 whole entry): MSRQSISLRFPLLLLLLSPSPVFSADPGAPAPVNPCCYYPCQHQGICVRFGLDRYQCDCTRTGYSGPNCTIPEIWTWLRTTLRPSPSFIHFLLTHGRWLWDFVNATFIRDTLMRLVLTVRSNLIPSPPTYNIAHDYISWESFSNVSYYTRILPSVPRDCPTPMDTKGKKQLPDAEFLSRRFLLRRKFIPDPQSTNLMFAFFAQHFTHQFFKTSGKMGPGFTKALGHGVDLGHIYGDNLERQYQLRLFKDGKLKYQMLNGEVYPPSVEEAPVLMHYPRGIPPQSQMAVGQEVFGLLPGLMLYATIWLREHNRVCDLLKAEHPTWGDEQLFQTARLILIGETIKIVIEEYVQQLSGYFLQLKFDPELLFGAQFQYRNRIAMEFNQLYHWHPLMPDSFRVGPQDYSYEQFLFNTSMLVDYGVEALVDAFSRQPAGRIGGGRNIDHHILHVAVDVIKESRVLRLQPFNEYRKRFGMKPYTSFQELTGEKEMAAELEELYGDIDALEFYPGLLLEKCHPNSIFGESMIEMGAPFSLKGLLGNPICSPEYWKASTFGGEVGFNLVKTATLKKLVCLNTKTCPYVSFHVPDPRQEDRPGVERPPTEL
Recorded IC50 for the following molecules
State the answer as a number, implicitly in µM.

>  <SMILES STRING>
CS(=O)(=O)c1ccc(NC(=O)Nc2ccc(Cl)cc2)cc1

>  <IC50 / µM>
21.5

$$$$
>  <SMILES STRING>
Cc1ccc(NC(=O)Nc2ccc(S(C)(=O)=O)cc2)cc1

>  <IC50 / µM>
12.5

$$$$

Pending molecule:
stdin: Please report the measured IC50 for `CS(=O)(=O)c1ccc(NC(=O)Nc2ccc(F)cc2)cc1`
stdout: 21.8
